Where these numbers come from: the supplement of paper PMC9112550

tested on: Escherichia coli TOP10; experiment: shrunken log2 fold change of peptide-encoding DNA abundance (4.5 h post-induction vs induction); higher = less antimicrobial activity (less host growth inhibition); conditions: time post-induction: 4.5 h; library: site-saturation at positions 5, 18, 19, 20
Label scheme for shrunken log2 fold change: lower than -0.2 is Criterion not met, -0.2 and above is Criterion met.

Is shrunken log2 fold change at least -0.2? Consider "RRIRPRPPRLPRPRPRPGPCPRP"
Criterion met

Is shrunken log2 fold change at least -0.2? Consider "RRIRLRPPRLPRPRPRPDHRPRP"
Criterion met

====

system: Escherichia coli TOP10; experiment: shrunken log2 fold change of peptide-encoding DNA abundance (4.5 h post-induction vs induction); higher = less antimicrobial activity (less host growth inhibition); details: time post-induction: 4.5 h; library: site-saturation at positions 5, 18, 19, 20;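 note: peptides expressed intracellularly from a pBAD plasmid library in pooled LB shake-flask culture, induced with 0.3% L-arabinose, DNA abundance read by NGS, three biological replicates, DESeq2 with apeglm shrinkage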
Recorded shrunken log2 fold change, one value per entry.
Could you respond with only the numeric value?

Look over these answered cases.
{"SEQUENCE CHAIN": "RRIRIRPPRLPRPRPRPHQPPRP", "ASSAY TARGET": "Escherichia coli TOP10", "EXPERIMENTAL VALUE": -0.421}
{"SEQUENCE CHAIN": "RRIRERPPRLPRPRPRPSNEPRP", "ASSAY TARGET": "Escherichia coli TOP10", "EXPERIMENTAL VALUE": -0.17}
{"SEQUENCE CHAIN": "RRIRWRPPRLPRPRPRPNSTPRP", "ASSAY TARGET": "Escherichia coli TOP10", "EXPERIMENTAL VALUE": -0.326}

Please state recorded shrunken log2 fold change (tested on Escherichia coli TOP10) of "RRIRPRPPRLPRPRPRPNWLPRP"
0.124
